The origin of these recorded values is patent US20080108600A1.

subject.of.test: hSK2 (Homo sapiens, UniProt Q9H2S1)
measurement.protocol: 86Rb+ efflux assay for compound activity towards hSK channels
Format: cell-based
setup.conditions: 86Rb+ efflux stimulated with calcium ionophore; drug 0.01 to 30 μM; read-out: hSK2 Inhibitory Activity
Experimental: 24.1 Assay for Compound Activity Towards hSK Channels Cells expressing small conductance, calcium activated potassium channels, such as SK-like channels were loaded with ^86Rb^+ by culture in media containing ^86RbCl. […] After a suitable efflux period, the EBSS/ionophore solution was removed from the cells and the ^86Rb^+ content was determined by Cherenkov counting (Wallac Trilux). Cells were then lysed with a SDS solution and the ^86Rb^+ content of the lysate was determined. […]
Structures can show the parent of a compound that is named as a salt.
value.type: IC50

Below are worked cases with known answers.
[[record]]
compound = "COc1ccc(-c2nccs2)nc1Nc1ccc(N2CCCN(C)CC2)cn1"
subject_of_test = "hSK2 (Homo sapiens, UniProt Q9H2S1)"
value = "100 to 500 nM"

[[record]]
compound = "CN1CCN(c2ccc(Nc3cccc(-n4cccn4)n3)nc2)CC1"
subject_of_test = "hSK2 (Homo sapiens, UniProt Q9H2S1)"
value = "500 to 1000 nM"

[[record]]
compound = "COc1ccc(-c2ncc(Cl)s2)nc1Nc1ccc(N2CCCC2)cn1"
subject_of_test = "hSK2 (Homo sapiens, UniProt Q9H2S1)"
value = "< 100 nM"

[[record]]
compound = "O=C1CCCCN1c1ccc(Nc2cccc(-n3cccn3)n2)nc1"
subject_of_test = "hSK2 (Homo sapiens, UniProt Q9H2S1)"
value = "< 100 nM"

[[record]]
compound = "COc1ccc(-c2ncc(Cl)s2)nc1Nc1ccc(N2CCCC2=O)cn1"
subject_of_test = "hSK2 (Homo sapiens, UniProt Q9H2S1)"
value = "< 100 nM"

[[record]]
compound = "O=C1CNCCN1c1ccc(Nc2cccc(-c3nccs3)n2)nc1"
subject_of_test = "hSK2 (Homo sapiens, UniProt Q9H2S1)"
value = "100 to 500 nM"

[[record]]
compound = "COc1ccc(-c2nccs2)nc1Nc1ccc(-c2ccccc2)cn1"
subject_of_test = "hSK2 (Homo sapiens, UniProt Q9H2S1)"
value = "100 to 500 nM"

[[record]]
compound = "COc1ccc(-c2nccs2)nc1Nc1ccc(-c2ccccn2)cn1"
subject_of_test = "hSK2 (Homo sapiens, UniProt Q9H2S1)"
value = "< 100 nM"


In: Field request: IC50 | item: c1ccc(CNCc2ccc(Nc3cccc(-c4nccs4)n3)nc2)cc1 [dihydrochloride]
Out: 100 to 500 nM

In: I have this compound here, COCCN(C)c1ccc(Nc2nc(-c3ncc(Cl)s3)ccc2OC)nc1 , and I need its recorded IC50.
Out: < 100 nM

In: Sample CCc1cnc(-c2cccc(Nc3ccc(N4CCCCC4=O)cn3)n2)s1 — what was its IC50?
Out: 100 to 500 nM

In: Using the record for Cc1ccc(-c2ccc(Nc3cccc(-c4nccs4)n3)nc2)o1 , report its IC50.
Out: < 100 nM

In: Item c1cc(Nc2cc3c(cn2)CCCC3)nc(-c2nccs2)c1 has what recorded IC50?
Out: < 100 nM

In: // IC50 lookup, key: COC(=O)c1ccc(Nc2cccc(-n3cccn3)n2)nc1
Out: 100 to 500 nM

In: Recorded IC50 for COc1ccc(-c2ncc(Cl)s2)nc1Nc1ccc(N2CCC(OC)CC2)cn1 , please?
Out: < 100 nM

In: Data request, read-out IC50, for C=C(C)c1ccc(Nc2cccc(-n3cc(C)cn3)n2)nc1
Out: < 100 nM

In: Please look up its IC50: CCc1cnc(-c2cccc(Nc3ccccn3)n2)s1
Out: < 100 nM

In: What does the record list as IC50 for c1cc(Nc2ccc(CN3CCc4ccccc4C3)cn2)nc(-c2nccs2)c1 ?
Out: < 100 nM

In: I would be grateful if you could share the reported IC50 for c1cc(Nc2cc3ccccc3cn2)nc(-c2nccs2)c1 .
Out: < 100 nM

In: Would you kindly share the measured IC50 for COc1ccc(-c2ccccn2)nc1Nc1ccc(N2CCN(C)CC2)cn1 ?
Out: < 100 nM

In: Can you look up the measured IC50 of Clc1cnc(-c2cccc(Nc3ccc(N4CCCC4)cn3)n2)s1 for me?
Out: < 100 nM

In: Tell me the measured IC50 of Cc1cnn(-c2cccc(Nc3ccc(C(C)C)cn3)n2)c1 , please.
Out: < 100 nM

In: Look at this compound and give its reported IC50. Cc1cnn(-c2cccc(Nc3ccc(Br)cn3)n2)c1
Out: < 100 nM

---

subject.of.test: hSK2 (Homo sapiens, UniProt Q9H2S1)
measurement.protocol: 86Rb+ efflux assay for compound activity towards hSK channels
setup.conditions: 86Rb+ efflux stimulated with calcium ionophore; drug 0.01 to 30 μM; read-out: hSK2 Inhibitory Activity
pIC50: −log10 of the molar value.
value.type: pIC50

# example entries with known answers
[[record]]
molecule = "CN1CCC(=O)N(c2ccc(Nc3cccc(-c4nccs4)n3)nc2)CC1"
value = "6.30 to 7.00"

[[record]]
molecule = "Clc1ccc(Nc2cccc(-c3nccs3)n2)nc1"
value = "> 7.00"

[[record]]
molecule = "c1cc(Nc2ccc(CN3CCCC3)cn2)nc(-c2nccs2)c1"
value = "> 7.00"


In: Param readout= pIC50; system= hSK2 (Homo sapiens, UniProt Q9H2S1); entry= Cc1cnn(-c2cccc(Nc3ccc(F)cn3)n2)c1 ; returns value.
Out: > 7.00

In: Given the entry c1cc(Nc2nnc(C3CC3)s2)nc(-c2nccs2)c1 , what pIC50 was observed with hSK2 (Homo sapiens, UniProt Q9H2S1)?
Out: 6.30 to 7.00

In: Find pIC50 (hSK2 (Homo sapiens, UniProt Q9H2S1)) for the entry COc1ccccc1-c1ccc(Nc2cccc(-n3cc(C)cn3)n2)nc1
Out: > 7.00

In: # returns recorded pIC50 (system: hSK2 (Homo sapiens, UniProt Q9H2S1)) for Clc1ccc(Nc2cccc(-n3cccn3)n2)nc1
Out: > 7.00

In: Checklist item: pIC50 tested on hSK2 (Homo sapiens, UniProt Q9H2S1), entry c1cc(Nc2ccc(-c3ccco3)cn2)nc(-c2cnccn2)c1 , value?
Out: > 7.00

In: Give the reported pIC50 for COc1ccc(-c2nccs2)nc1Nc1ccc(N2CCCC2=O)cn1 (system: hSK2 (Homo sapiens, UniProt Q9H2S1)).
Out: > 7.00

In: Param readout= pIC50; system= hSK2 (Homo sapiens, UniProt Q9H2S1); entry= COc1ccc(-c2cnccn2)nc1Nc1ccc(C(C)C)cn1 ; returns value.
Out: 6.30 to 7.00

In: Record lookup: for hSK2 (Homo sapiens, UniProt Q9H2S1), what pIC50 belongs to COc1ccc(-c2ncc(Cl)s2)nc1Nc1ccc(N2CCOCC2)cn1 ?
Out: > 7.00

In: Form: Entry = COc1ccc(-c2nccs2)nc1Nc1ccc(N(C)C2CCN(C)C2)cn1 (stereo not drawn) | System = hSK2 (Homo sapiens, UniProt Q9H2S1) | pIC50 = ____
Out: 6.30 to 7.00

In: Look up pIC50 with hSK2 (Homo sapiens, UniProt Q9H2S1) for this molecule: Cc1ccc(-c2cccc(-c3nc4ccc(Cl)cc4[nH]3)n2)nc1
Out: 6.30 to 7.00

In: Param readout = pIC50; param system = hSK2 (Homo sapiens, UniProt Q9H2S1); param query = CN1CCN(c2ccc(Nc3cccc(-c4nccs4)n3)nc2)C(=O)C1 ; response: value
Out: 6.30 to 7.00

In: Request body: readout pIC50, system hSK2 (Homo sapiens, UniProt Q9H2S1), query COc1ccc(-c2cnccn2)nc1Nc1ccc(N2CCCCC2)cn1 . Return the value.
Out: > 7.00

In: Enter reported pIC50 observed with hSK2 (Homo sapiens, UniProt Q9H2S1) for Cc1cnn(-c2cccc(Nc3ccc(N4CCC(C)CC4)cn3)n2)c1
Out: 6.30 to 7.00

In: Form field: pIC50 recorded for Cc1ccc(Nc2cccc(-c3nccs3)n2)nc1 with hSK2 (Homo sapiens, UniProt Q9H2S1) (enter value)
Out: > 7.00

In: Return pIC50 measured with hSK2 (Homo sapiens, UniProt Q9H2S1) given this molecule: Brc1ccc(Nc2cccc(-c3nccs3)n2)nc1
Out: > 7.00

In: GET /values?readout=pIC50&system=hSK2 (Homo sapiens, UniProt Q9H2S1)&item= COc1ccc(-c2nccs2)nc1Nc1ccc(NC2CN3CCC2CC3)cn1 (stereo not drawn)
Out: 6.30 to 7.00

In: Under hSK2 (Homo sapiens, UniProt Q9H2S1): pIC50 value of COc1ccc(-c2nccs2)nc1Nc1ccc(N2CCN(C)CC2)cn1 ?
Out: > 7.00

In: # query: pIC50 | item CCc1ccc(Nc2cccc(-c3nccs3)n2)nc1 | system: hSK2 (Homo sapiens, UniProt Q9H2S1)
Out: > 7.00
